assay.notes: Cytotoxicity counterscreen for inhibitors of SARS-CoV-2 cell entry (AID 1645845); also: % is scaled to controls: 0 for no effect and ±100 for the full control effect; nearly all actives have a fitted effect of over 50% in size
measurement.conditions: cell viability (SARS-CoV-2 entry assay cells); series mostly up to 57.1 µM
Experimental: Assay Provider: Wei Zheng, Ph.D. National Center for Advancing Translational Sciences, National Institute of Health, Rockville, MD. SARS-CoV-2 spike protein, within the viral envelope, mediates viral attachment and infection of host cells. The SARS-CoV-2 spike protein specifically binds to the host receptor ACE2 (Angiotensin-converting enzyme 2). […] 7. […] Dispense 4 uL/well of ATPLite 1step luminescence assay reagent (PerkinElmer #6016739). […] 9. […] Read luminescence signal (Viewlux plate reader, PerkinElmer). […]
Results filed as inconclusive are left out. Activity calls are given as the source filed them. Calls follow the shape of the full dose curve.

compound	outcome
COc1ncc(-c2ccc3c(Nc4cc(Oc5cc(F)cc(F)c5)cc(C(=O)O)c4)c(S(=O)(=O)NC4CC4)cnc3c2)c(OC)n1	inactive
O=C(OC[C@H]1O[C@@H](OC(=O)c2cc(O)c(O)c(O)c2)[C@H](O)[C@@H](OC(=O)c2cc(O)c(O)c(O)c2)[C@@H]1O)c1cc(O)c(O)c(O)c1	inactive
CO[C@H](C(=O)[C@@H](O)[C@@H](C)O)C1Cc2cc3cc(O[C@H]4C[C@@H](O[C@H]5C[C@@H](O)[C@H](O)[C@@H](C)O5)[C@@H](O)[C@@H](C)O4)c(C)c(O)c3c(O)c2C(=O)[C@H]1O[C@H]1C[C@@H](O[C@H]2C[C@@H](O[C@H]3C[C@](C)(O)[C@H](O)[C@@H](C)O3)[C@H](O)[C@@H](C)O2)[C@H](O)[C@@H](C)O1 (stereo partly drawn)	inactive

* * *

Kindly state Potency for each of the entries shown.
assay.notes: KB-3-1 Cancer Cell Toxicity qHTS against the NCATS CANVASS Library (AID 1347366); also: potency is read from the fitted curve at half-maximal effect; nearly all actives have a fitted effect of over 75% in size
measurement.conditions: KB-3-1 viability, CellTiter-Glo luminescence, 72 h; series mostly up to 46.1 µM
Records with an inconclusive call do not appear. Calls of active or inactive are those of the source. Calls follow the shape of the dose curve; as a rule, active = well fitted cell-killing curve with a large enough effect; inconclusive = small, poorly fitted or top-dose-only effect; inactive = flat fitted curve, though single readings scatter.

query: Suppose we examine the molecule C=C(C)[C@H]1C(=O)c2c3c(cc4c5c(n1c24)[C@@]1(C)[C@@H](CC[C@H]2[C@](C)(/C=C/C=C(\C)C(=O)O)[C@@H](O)CC[C@@]21C)C5)C1=CC(C)(C)OC(C)(C)[C@H]1[C@@H]3O ; what Potency value has been reported?
result: 16.6 µM (active)

query: GET /values?readout=Potency&item= CO[C@H]1C[C@H](O[C@H]2[C@@H](O)C[C@H](O[C@H]3CC[C@]4(C=O)[C@H]5CC[C@]6(C)C(C7=CC(=O)OC7)CC[C@]6(O)[C@@H]5CC[C@]4(O)C3)O[C@@H]2C)O[C@H](C)[C@H]1O[C@H]1C[C@@H](OC)[C@@H](O[C@@H]2O[C@H](CO)[C@@H](O)[C@H](O)[C@H]2O)[C@@H](C)O1 (stereo partly drawn)
result: 0.187 µM (active)

* * *

assay.notes: Primary qHTS for inhibitors of SARS-S pseudo-typed particle cell entry (AID 1479145); also: nearly all actives have a fitted effect of over 45% in size
measurement.conditions: SARS-S pseudotyped particle cell entry, luciferase reporter; series mostly up to 57.1 µM
Results filed as inconclusive are left out. The source made the active and inactive calls. The call rests on the fitted dose curve.
assay.metric: outcome

compound	outcome
COC(=S)NCCn1c([N+](=O)[O-])cnc1C	inactive
Cc1oc(=O)oc1COC(=O)N1CC[C@@H](N2CC/C(=C\C3=C(C(=O)O)N4C(=O)[C@@H](NC(=O)/C(=N/O)c5nsc(N)n5)[C@H]4SC3)C2=O)C1	inactive
C[N+]1(C)C2CC[C@H]1CC(OC(=O)C(O)c1ccccc1)C2 (stereo partly specified)	inactive
CCc1ccc(Nc2c(F)c(F)cc(F)c2F)c(CC(=O)O)c1	inactive
COc1cccc(N2CCN(C3=Nc4c(F)cccc4[C@H](CC(=O)O)N3c3cc(C(F)(F)F)ccc3OC)CC2)c1	inactive
CC(C)OC(=O)Nc1ccc2nc(-c3cscn3)[nH]c2c1	inactive
O=C(OCc1ccccc1)c1cccnc1	inactive
COC(=O)CCC[N+](C)(C)C	inactive

query: Look at this compound and give its reported outcome. CN1CC(O)c2cc(N=NC(N)=O)c(O)cc21 (stereo unspecified)
result: inactive

query: Report outcome for CS(=O)(=O)c1ccc([C@@H](O)[C@@H](COC(=O)CN)NC(=O)C(Cl)Cl)cc1 please.
result: inactive

query: Fill in: outcome of Nc1c(CC(=O)O)cccc1C(=O)c1ccccc1 is ___
result: inactive

* * *

target.entity: Rap guanine nucleotide exchange factor 3 (Homo sapiens) (UniProt O95398)
Sequence (O95398 whole entry, looked up): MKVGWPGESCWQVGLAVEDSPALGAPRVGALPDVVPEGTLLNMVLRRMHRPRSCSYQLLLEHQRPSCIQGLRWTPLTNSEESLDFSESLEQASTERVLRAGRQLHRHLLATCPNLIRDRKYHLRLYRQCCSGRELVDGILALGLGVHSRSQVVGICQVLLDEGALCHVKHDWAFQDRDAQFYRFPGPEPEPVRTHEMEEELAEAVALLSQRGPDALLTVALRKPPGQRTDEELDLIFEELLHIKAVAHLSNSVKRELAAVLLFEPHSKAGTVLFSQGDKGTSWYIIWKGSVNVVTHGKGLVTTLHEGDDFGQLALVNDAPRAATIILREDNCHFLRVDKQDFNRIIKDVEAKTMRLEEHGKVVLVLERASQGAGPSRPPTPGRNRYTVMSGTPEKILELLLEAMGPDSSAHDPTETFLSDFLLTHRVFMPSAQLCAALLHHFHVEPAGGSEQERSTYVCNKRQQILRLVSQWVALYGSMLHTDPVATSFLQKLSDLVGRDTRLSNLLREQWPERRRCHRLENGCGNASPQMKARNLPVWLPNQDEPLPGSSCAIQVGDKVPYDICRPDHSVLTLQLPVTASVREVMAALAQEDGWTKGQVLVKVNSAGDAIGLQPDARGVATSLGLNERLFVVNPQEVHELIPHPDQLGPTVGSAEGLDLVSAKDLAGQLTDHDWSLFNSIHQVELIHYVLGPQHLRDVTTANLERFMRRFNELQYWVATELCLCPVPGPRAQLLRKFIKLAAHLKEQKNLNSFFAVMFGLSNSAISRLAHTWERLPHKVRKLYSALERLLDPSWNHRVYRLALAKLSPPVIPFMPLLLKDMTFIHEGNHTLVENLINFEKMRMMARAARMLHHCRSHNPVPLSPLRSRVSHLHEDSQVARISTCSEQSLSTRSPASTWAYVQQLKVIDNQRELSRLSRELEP
assay.notes: Counterscreen qHTS for antagonist of cAMP-regulated guanine nucleotide exchange factor 3 (EPAC1) (AID 1645888);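 also: fluorescence loss as bound BODIPY-GDP is released from Rap1B; % of control where 0% means no effect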
measurement.conditions: Rap1B-BODIPY-GDP nucleotide exchange, fluorescence; series mostly up to 154 µM
Records with an inconclusive call do not appear. Activity calls are given as the source filed them. Calls come from the whole dose curve; as a rule, active = well fitted inhibition curve with a large enough effect; inconclusive = small, poorly fitted or top-dose-only effect; inactive = no such curve, though single readings can be large or run the other way.
assay.metric: activity change, negative = inhibition

Solved cases below.
compound	activity change, negative = inhibition
O=C(OC1CCN(CCCl)CC1)C(c1ccccc1)c1ccccc1	-43.6% [at 30.8 µM] (inactive)
COc1ccc(C(=O)C2CN(C)CC2c2ccc(Cl)cc2)cc1 (stereo unspecified)	7.3% [at 30.8 µM] (inactive)
CCCCC/C(=N/O)c1c(C)[nH]c2ccccc12	inactive
Cc1c2cnn(CC(=O)N3CCC4(CC3)OCCO4)c(=O)c2c(C)n1Cc1ccc(F)cc1	inactive
FC(F)(F)c1cccc(C2NCc3ccccc3-n3cccc32)c1 (stereo unspecified)	-3.38% [at 30.8 µM] (inactive)
Cc1ccc(N2C(=O)NC(=O)/C(=C\C=C\c3ccco3)C2=O)cc1	inactive

Please look at the following compound next.
query: // returns reported activity change, negative = inhibition for input CCOC(=O)[C@]12Cc3cc(OC)ccc3[C@H]1N(Cc1ccccc1)C(=O)c1cc(F)c(F)cc12
result: inactive

* * *

assay.notes: qHTS Assay for Lipid Storage Modulators (AID 1519); also: % is scaled to controls: 0 for no effect and ±100 for the full control effect
measurement.conditions: Drosophila S3 cells, BODIPY lipid droplet/cell ratio, laser cytometry; at 57.5 µM (top of the series); cells loaded with oleic acid
Inconclusive results are not listed.
Exercise: for every item that follows, state its recorded activity change, negative = inhibition.
Numeric only. Scale: %

query: Please look up its activity change, negative = inhibition: CCC12C=CCN3CCC4(c5ccc(OC)cc5N(C)C4[C@@](O)(C(=O)OC)C1OC(C)=O)C32 (stereo not given in full)
result: 1.88

query: What value of activity change, negative = inhibition has been recorded for this entry: CC1CC[C@@]2(NC1)O[C@@H]1C[C@H]3C4CC=C5C[C@@H](O)CC[C@]5(C)C4CC[C@]3(C)[C@H]1[C@@H]2C (stereo not given in full)
result: 7.46

query: Give the measured activity change, negative = inhibition of CN1C2CC(OC(=O)C(CO)c3ccccc3)C[C@@H]1[C@H]1OC21 (stereo not given in full) .
result: 7.13

query: Given the entry c1csc(CN2CC[C@@]3(CCCNC3)C2)n1 , report its measured activity change, negative = inhibition.
result: 0.956

query: Fill blank: measured activity change, negative = inhibition of the molecule Cc1c(O)c(O)cc2c1CC=C1[C@]3(C)CC[C@]4(C)CC[C@@](C)(C(=O)O)CC4[C@]3(C)CC[C@]12C (stereo not given in full) is ____.
result: -4.4

query: If you can, please state the reported activity change, negative = inhibition value of O=C(c1csnn1)N1CCC2(CC1)CN(Cc1ccncc1)C2 .
result: 4.72

query: Which value of activity change, negative = inhibition has been reported for CN1CCCC2(CCN(C(=O)c3ccncc3)CC2)C1 in the records?
result: 2.07

query: # activity change, negative = inhibition lookup, item O=C(O)COc1ccc(Cl)cc1Cl
result: -1.59

query: Which activity change, negative = inhibition value belongs to COCC(=O)N1CCC2(CCCN(Cc3ccncc3)C2)CC1 ?
result: 5.89

query: Fill in the blank: the reported activity change, negative = inhibition of c1cc2c(cc1C1OC[C@@H]3C(c4ccc5c(c4)OCO5)OCC13)OCO2 (stereo not given in full) is ____.
result: 7.47

query: Any idea what activity change, negative = inhibition was measured for CN1CCN(c2ncc3ncc(=O)n(C)c3n2)CC1 ?
result: 3.09

query: // lookup activity change, negative = inhibition for N#C/C(=C\c1ccc(O)cc1)C(=O)O
result: 4.55

query: Name the reported activity change, negative = inhibition value associated with the molecule CC(C)OC(=O)Nc1cccc(Cl)c1
result: 8.95

query: Using the record for C=CCc1ccc(OC)cc1 , report its activity change, negative = inhibition.
result: 1.63

query: Give the measured activity change, negative = inhibition of C[C@]1(C(=O)O)CCC[C@]2(C)c3cc(O)ccc3CC[C@@H]12 .
result: -6.36

query: Name the reported activity change, negative = inhibition value associated with the molecule CCC(C)C1O[C@]2(C=CC1C)CC1CC(C/C=C(\C)[C@H](OC3CC(OC)C(O[C@H]4CC(OC)[C@@H](O)C(C)O4)C(C)O3)[C@@H](C)/C=C/C=C3\COC4C(O)C(C)=C[C@H](C(=O)O1)[C@@]34O)O2 (stereo not given in full)
result: -5.38

query: For the molecule CCNc1nc(Cl)nc(NC(C)C)n1 , what activity change, negative = inhibition is on record?
result: 7.77

query: Fill blank: measured activity change, negative = inhibition of the molecule ClC1=C(Cl)C2(Cl)C3C4C=CC(C4)C3C1(Cl)C2(Cl)Cl (stereo not given) is ____.
result: 4.06

query: Consider the molecule CCC12CCCN3CCC4(c5ccc(OC)c(O)c5N(C(C)=O)C4CC1)C32 (stereo not given) and give its measured activity change, negative = inhibition.
result: -0.564

query: Requested read-out: activity change, negative = inhibition. Entry: CC(CCC(=O)O)C1CCC2C3CC[C@H]4CC(O)CC[C@@]4(C)C3CC[C@@]12C (stereo not given in full)
result: -0.0455

query: Please give the measured activity change, negative = inhibition for this molecule: CC(=O)OC1CC[C@]2(C)C(CCC3C2CC[C@]2(C)C(C4=CC(=O)OC4)C(OC(C)=O)CC32O)C1 (stereo not given in full)
result: 6.45

query: Quick check: activity change, negative = inhibition of CC1(C)N([O-])[N+](=O)C1(C)Br (stereo not given) ?
result: 1.13

query: So what's the measured activity change, negative = inhibition for this one? CC1(C)C(O)CC(O)[C@]2(C)C1CC(=O)[C@]1(C)C2CC[C@@]2(C)C(c3ccoc3)OC(=O)C3OC321 (stereo not given in full)
result: -5.65

query: Suppose we examine the molecule S=C=NCc1ccccc1 ; what activity change, negative = inhibition value has been reported?
result: 4.36

query: Returns the measured activity change, negative = inhibition for the input molecule. Input: COc1ccc(/C=C/c2cc(O)cc(O)c2)cc1
result: 4.7

query: May I ask what activity change, negative = inhibition has been recorded for c1cc(N2CCCC3(CCNCC3)C2)ccn1 ?
result: 4.41

query: For the molecule shown here, COc1cc2c(cc1OC)C(C)NCC2 (stereo not given) , give the reported activity change, negative = inhibition.
result: 4.92

query: Tell me the measured activity change, negative = inhibition of CN1CCCC2(CCN(C(=O)c3ccco3)CC2)C1 , please.
result: -2.44

query: Any idea what activity change, negative = inhibition was measured for CC1CC[C@]2(NC1)OC1CC3C4CC=C5CC(O)CC[C@@]5(C)C4CC[C@]3(C)C1C2C (stereo not given in full) ?
result: 2.46

query: What does the record list as activity change, negative = inhibition for C[C@]12CC[C@H](O)CC1=CCC1C2CC[C@]2(C)C(=O)CC[C@@H]12 (stereo not given in full) ?
result: 0.778

query: Please report the recorded activity change, negative = inhibition for c1cnc(N2CC3(CCNCC3)C2)nc1 .
result: 1.55

query: For the molecule shown here, CC(=O)OC1C2C(OC(=O)Cc3ccccc3)C(C)CC2(OC(C)=O)C(=O)/C(C)=C/C2C(CC[C@@]13CO3)C2(C)C (stereo not given in full) , give the reported activity change, negative = inhibition.
result: -0.982

query: What activity change, negative = inhibition value was documented for this molecule, COc1cc(C2c3cc4c(cc3C(O)C3COC(=O)C23)OCO4)cc(OC)c1O (stereo not given) ?
result: 7.14

query: Query: activity change, negative = inhibition; subject: CCS(=O)CCSP(=O)(OC)OC (stereo not given)
result: -0.0729

query: # input molecule: CN1CCCCC1c1ccc(-c2cccnc2)nc1 (stereo not given) ; wanted: its activity change, negative = inhibition
result: 6.38

query: Quick one: activity change, negative = inhibition of c1ccc(CN2CCC3(CCNCC3)CC2)cc1 ?
result: 1.99

query: I am curious: what activity change, negative = inhibition value has been reported for c1cc(CN2CCCC3(CCNCC3)C2)ccn1 ?
result: 4.72

query: Any idea what activity change, negative = inhibition was measured for c1ccc(N2CC[C@@]3(CCCNC3)C2)cc1 ?
result: 5.37

query: Entry CN1CCc2cc3c(cc2C1O)OCO3 (stereo not given) : reported activity change, negative = inhibition = ?
result: 7.6

query: Consider the molecule O=C1CCCC2C3CC(CN12)C1CCCCN1C3 (stereo not given) and give its measured activity change, negative = inhibition.
result: 6.45

query: Reported activity change, negative = inhibition for CC1Cc2cc3c(cc2C(c2ccc(N)cc2)=NN1)OCO3 (stereo not given) : what is it?
result: 1.87

query: Which activity change, negative = inhibition value belongs to CC(=O)O.CC(=O)O.[Cd] ?
result: 4.11

query: Given the molecule COC1=CC2C3Cc4ccc(OC)c(O)c4[C@]2(CCN3C)CC1=O (stereo not given in full) , what is its reported activity change, negative = inhibition?
result: 4.04

query: # activity change, negative = inhibition lookup, item N#Cc1ccc(CN2CCC3(CC2)CCN(C(=O)Oc2ccccc2)CC3)cc1
result: 0.91

query: Which value of activity change, negative = inhibition has been reported for Cc1cc(OC(=O)N2CCCCC2)c(C(C)C)cc1[N+](C)(C)C in the records?
result: 8.28
